Source of measurements: the nanobody polyreactivity screen of Harvey et al. (2022)

test: yeast display, Sf9 membrane polyspecificity reagent, FACS + sequencing; frameworks hold sequencing errors
reported_metric: polyreactivity (PSR sort gate)

Worked cases, polyreactivity (PSR sort gate) given:
QVQLVESGGGLVQAGGSLRLSCAASGYIIWDYAMGWYRQAPGKEREFVATISRSVGSTYYADSVKGRFTISRDNAKNTVYLQMNSLKPEDTAVYYCAAVTWGEGFDYWGQGTQVTVSS: low polyreactivity
QVQLVESGGGLVQAGGSLRLSCASSGRICGYYAMGLYRQAPGKERELVAAITSGGSTYYADSVKGRFTISRDNEKNTVYFQMKSLKPEDTAVYFCNKVTRYSPYDYWGQGTQVTVSS: high polyreactivity
QVQLVESGGGLVQAGGSLRLSCAASGNIYPYYAIGWYRQAPGKERELVAAINAGGGNTYYADSVKGRFTISRDNAKNTVYLQMNSLKPEDTAVYYCAARRVRIYYGSVVWYKYDYWGQGTQVTVSS: high polyreactivity
QVQLGESGRGLVQAGGSLRLSCAASGRTSWYYAMGWYSQAPGKERELVATSTRSTGSTYYADSVKGRFTISRDNAKNTVYLQMNSLKPEDTAVYYCAKRRKTQPFYIKWYRVDYWGQGTQVTVST: high polyreactivity
QVQLVESGGGLVQAGGSLRLSCAASGFTLYGYTMGWYRQAPGKERELVAAISGSGGRTYYADSVKGRFTISRDNAKNTVYLQMNSLKPEDTAVYYCAARHHPEYYYWGQGTQVTVSS: high polyreactivity
QVQLVEAGGCLVHAGGSLRLSCAASGRIFVGNAMGWYRQAPGKERELVAAINNGGTTYYADSVKGRFTIARDNGKNTVYLQMNSLKPEDTAVYHCAATPYRGTRSYLIGELDYWGQGTQVTVSS: low polyreactivity

Ask | Please report the recorded polyreactivity (PSR sort gate) for `QVQLVESVRGLVQAGGSLRVSCAASGRTFIVYAMGWYRQAPGKERELVAGITRGSTKYADSVKGRFTISRDNAKNTVYLQMNSLKPEDTAVYYCAGRSSRRGPISEGDYWGQGTQVTVSS` .
Reply | high polyreactivity

Ask | Please report the recorded polyreactivity (PSR sort gate) for `QVQLVESGGGLVQAGGSLRLSCAASGSIFSPYAMGWYRQAPGKERELVAAITNSGGRTYYADSVKGRFTISRDNAKNTVYLQMNSLKPEDTAVYYCNADYGKHHTDYYYWGQGTQVTVSS` .
Reply | low polyreactivity

Ask | Please report the recorded polyreactivity (PSR sort gate) for `QVQLVESGGGLVQAGGSLRLSCAASGSIFLLYAMGWYRQAPGKERELVAAISTRDGSTYYADSVKGRFTLSRDNAKNTVYLQMNSLKPEDTAVYYCATLYSYNYWGQGTQVTVSS` .
Reply | high polyreactivity

====

assay: yeast display, Sf9 membrane polyspecificity reagent, FACS + sequencing; frameworks hold sequencing errors
reported_metric: polyreactivity (PSR sort gate)

QVQLVESGGGLVQAGGSLRLSCAASGFTFWKYAMGWYRQAPGKEREFVPAISWSGGNTYYADSVKGRFTISRDNAKNTVYLQMNSLKPEDTADYYCARRGRYYLYTDDYDYWGQGTQVTVSS: high polyreactivity
QVQLVESGGGLVQAGGSLRLSCAASGGIFKRNTMGWYRQAPGKERELVAGISWTGGRTYYADSVKGRFTISSDNAKNNVYLPPNSLKPEDTAVYYCAAKPLQGVRRVEYWGQGTQVTVSS: high polyreactivity
QVQLVESGGGLVQAGGSLRISCAASGSIFGSYTMGWYRQAPGKERELVAVINWSGDRTYYADSVKGRFTISRDNAKNTVYLQMNSLKPEDTAVYYCAARERAGYSRIRYNYWGQGTQVTVSS: low polyreactivity
QVQLVESGGGLVQAGGSLRLSCAASGSIFSQYAMGWYRQAPGKERELVAAISGGGGSTSYADSVKGRFTISRDNAKNTVYLQMNSLKPDDTAVYYCAAYLYNRPYQLTGYYDGYGYWGQGTQVTVSS: low polyreactivity
QVQLVESGGGLVQAGGSLRLSCAASGGIFRKNAMGWYRQAPGKERELVAAISWDGDNTYADSVKGRFTISRDNAKNTVYLQMNSLKPEDTAVYYCAAETFTDYDYWGQGTQVTVSS: high polyreactivity
QVQLVESGGGLVQAGGSLLLSCAASGIIFSSYVMGWYRQAHGKERELVAAISKSGARPSYADSVKGRFTISRDNAKNTVYLQMNSLKPEDTAVYYCAAAWHTAYWVGSDSQGGGYWGQGTQVTVSS: low polyreactivity
QVQLVESGGGLVQAGGSLRLSCAASGSIFYSYDMGWYRQAPGKERELVAAIDWSGGSTYYADSVKGRFTISRDNAKNTVYLQMNSLKPEDTAVYYCAADDQVEGDYWGQGTQVTVSS: high polyreactivity
QVQLVESGGGLVQAGGSLRLSCAASGRTFYYYAMGWYRQAPGKERELVASITFSGGRTYYADSVKGRFTISRDNAKNTVYLQMNSLKPEDTAVYYFARPYYGRYYPNYGVTGVDYWGQGTQVTVSS: high polyreactivity

Ask | Please report the recorded polyreactivity (PSR sort gate) for `QVQLLESGGGLGQAGGSLRLSCAASGIIFRDSGMGWYRQAPGKEREFVATITYSGGGTYYADSVKGRFTISRDHAKNTVYLQMNSLKPEDTAVYYCAAYPFYYDLAYDYWGQGTQVTVSS` .
Reply | low polyreactivity

Ask | Please report the recorded polyreactivity (PSR sort gate) for `QVQLVESGGGLVQAGGSLRLSCAASGRTLKYNVMGWYRQAPGKERELVASITSRGGSTRYADSVKGRFTISRDNAKNTVYLLMNSLKPEDTAVYYCAARYTTARSSYDYWGQGTQVTVSS` .
Reply | high polyreactivity

Ask | Please report the recorded polyreactivity (PSR sort gate) for `QVQLVESGGCLVQAGGSLRLSCAASGRIFGVYAMGWYRQAPGKERELVAAISEGGGSTNYADSVKGRFTISRDNANNTVYLQMNSLKPEDTAVYYCAATSRTGVRRYYSWGQGTQVTVSS` .
Reply | low polyreactivity
